# tgt: recombinant soluble homotrimeric HA of A/Japan/305/57 (H2N2) (Influenza A virus A/Japan/305/1957 (H2N2))
# assay comment: HA microarray, BCC supernatant
# condition details: remark: other sources report otherwise

binder	unit descriptor	Trimeric HA Binding RLU
TCN-544 (5082_A19) (antibody, V domains shown) VH: QVQLQESGPGLVKPSETLSLTCTVSRGSIGHYFWSWIRQPPGKGLEWIGYISYSGSTKYNPSLRSRVTISVDTSKNQFSLNLNSVTATDTALYYCAREDYDILTGAGPGMEVWGQGTTVTVSS VL: QSMLTQPPSASGTPGQRVTISCSGSSSNIGSNTVNWFKHLPGTAPKLLIYRNDLRPSGVPDRFSGSKSGTSASLAISGLQSEDEADYYCATWDDSLNGFYVFGTGTKVTVL	RLU	187
TCN-542 (5079_A16) (antibody, V domains shown) VH: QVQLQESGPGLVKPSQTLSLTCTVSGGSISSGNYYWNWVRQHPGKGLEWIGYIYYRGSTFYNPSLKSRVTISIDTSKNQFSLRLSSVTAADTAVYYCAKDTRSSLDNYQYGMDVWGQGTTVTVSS VL: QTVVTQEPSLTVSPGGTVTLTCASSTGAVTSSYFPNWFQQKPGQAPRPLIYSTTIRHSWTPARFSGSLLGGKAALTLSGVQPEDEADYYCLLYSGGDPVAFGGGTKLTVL	RLU	142
